Conditions: PAMPA;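 also: Phospholipid-membrane PAMPA, donor and acceptor in DPBS pH 7.4 with 5% DMSO, 37 °C for 5 h, compound in each well quantified by reverse-phase HPLC-MS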
Starred links: 1 amine or outer side, 2 acyl side, 3 side chain; linkers in the order of their positions; H or OH if unused. Positions of bridges follow the written chain, without caps; N, C: chain ends. Non-standard residues stand in square brackets, D forms with d. Residues, ends and D or L forms follow the SMILES beside them. X1 = O=C([C@]1(CC=[*:3])CCCN1[*:1])[*:2]; αAllylPro = C=CC[C@@]1(C(=O)O)CCCN1; Ala(cPr) = N[C@@H](CC1CC1)C(=O)O; S5 = C=CCCC[C@](C)(N)C(=O)O
For each record, check the reported % Retention: if it is below 80% write 1, else write -1.

Compound | Class
CNC(=O)[C@H](Cc1ccc(O)cc1)NC(=O)[C@H](CC(=O)O)NC(=O)[C@H](CC(C)C)NC(=O)[C@H](CC(C)C)NC(=O)[C@H](Cc1ccc(O)cc1)NC(=O)[C@]1(C)CCCC=CC[C@]2(CCCN2C(C)=O)C(=O)N[C@@H](CC(C)C)C(=O)N[C@@H](CC(C)C)C(=O)N1 [PLL5-1] (Ac-[X1]LL[S5]YLLDY-NHMe; staple 1-4) | 1
CNC(=O)[C@H](CC(=O)O)NC(=O)[C@H](CCC(N)=O)NC(=O)[C@H](CC(C)C)NC(=O)[C@H](CC(C)C)NC(=O)[C@H](CCCNC(=N)N)NC(=O)[C@]1(C)CCCC=CC[C@]2(CCCN2C(C)=O)C(=O)N[C@@H](CC2CC2)C(=O)N[C@@H](CC(C)C)C(=O)N1 [PLL7-5] (Ac-[X1][Ala(cPr)]L[S5]RLLQD-NHMe; staple 1-4) | -1
CNC(=O)[C@H](CC(=O)O)NC(=O)[C@H](CCC(N)=O)NC(=O)[C@H](CC(C)C)NC(=O)[C@H](CC(C)C)NC(=O)[C@H](Cc1ccc(O)cc1)NC(=O)[C@]1(C)CCCC=CC[C@]2(CCCN2C(C)=O)C(=O)N[C@@H](CC2CC2)C(=O)N[C@@H](CC(C)C)C(=O)N1 [PLL7-7] (Ac-[X1][Ala(cPr)]L[S5]YLLQD-NHMe; staple 1-4) | -1
CCCC[C@@H]1NC(=O)[C@H](CC(C)C)NC(=O)[C@]2(CC=CCCC[C@@](C)(C(=O)N[C@@H](CC(C)C)C(=O)N[C@@H](CC(C)C)C(=O)N[C@@H](Cc3c[nH]cn3)C(=O)N[C@@H](Cc3ccc(O)cc3)C(=O)NC)NC1=O)CCCN2C(C)=O (single isomer, unassigned) | 1
CC(=O)N1CCC[C@]12CC=CCCC[C@@](C)(C(=O)N[C@@H](CCCNC(=N)N)C(=O)N[C@@H](CC(C)C)C(=O)N[C@@H](CC(C)C)C(=O)N[C@@H](Cc1c[nH]cn1)C(=O)N[C@@H](CC(=O)O)C(N)=O)NC(=O)[C@H](CC(C)C)NC(=O)[C@H](CC(C)C)NC2=O (single isomer, unassigned) | -1

Field: below-cutoff. Rule: recorded % Retention strictly less than 80%. Subject: CC(=O)N1CCC[C@]12CC=CCCC[C@@](C)(C(=O)N[C@@H](Cc1ccc(O)cc1)C(=O)N[C@@H](CC(C)C)C(=O)N[C@@H](CC(C)C)C(=O)N[C@@H](CCC(N)=O)C(=O)N[C@@H](CC(=O)O)C(N)=O)NC(=O)[C@H](CC(C)C)NC(=O)[C@H](CC1CC1)NC2=O (single isomer, unassigned)
1

Likewise for CNC(=O)[C@H](CC(=O)O)NC(=O)[C@H](CC(C)C)NC(=O)[C@H](CC(C)C)NC(=O)[C@H](Cc1ccc(O)cc1)NC(=O)[C@]1(C)CCCC=CC[C@]2(CCCN2C(C)=O)C(=O)N[C@@H]([C@@H](C)O)C(=O)N[C@@H](CC(C)C)C(=O)N1 (single isomer, unassigned) ?
-1

Repeat for the following compound: C=CCCC[C@](C)(NC(=O)[C@H](CC(C)C)NC(=O)[C@H](CC(C)C)NC(=O)[C@]1(CC=C)CCCN1C(C)=O)C(=O)N[C@@H](Cc1ccc(O)cc1)C(=O)N[C@@H](CC(C)C)C(=O)N[C@@H](CC(C)C)C(=O)N[C@@H](CC(=O)O)C(=O)NC [PLL4-10 variant 5, Ac-PL3-Leu-Leu-S5-Tyr-Leu-Leu-Asp-NHMe] (Ac-[αAllylPro]LL[S5]YLLD-NHMe)
1

Can you check CNC(=O)[C@H](CC(=O)O)NC(=O)[C@H](CC(C)C)NC(=O)[C@H](CC(C)C)NC(=O)[C@H](Cc1ccc(O)cc1)NC(=O)[C@]1(C)CCCC=CC[C@]2(CCCN2C(C)=O)C(=O)N[C@@H](CCCCN)C(=O)N[C@@H](CC(C)C)C(=O)N1 (single isomer, unassigned) next?
-1

// query: CNC(=O)[C@H](CC(=O)O)NC(=O)[C@H](CC(C)C)NC(=O)[C@H](CC(C)C)NC(=O)[C@H](Cc1ccc(O)cc1)NC(=O)[C@H](CCCNC(=N)N)NC(=O)[C@]1(C)CCCC=CC[C@]2(CCCN2C(C)=O)C(=O)N[C@@H](C)C(=O)N[C@@H](CC(C)C)C(=O)N1 [PLL4-4] (Ac-[X1]AL[S5]RYLLD-NHMe; staple 1-4)
1

All values here come from patent US20230357320A1.
